Catalogue of inhibition readings, one per entry.
# system-under-test: Histone deacetylase 2 (Homo sapiens)
# Sequence (Q92769 whole entry): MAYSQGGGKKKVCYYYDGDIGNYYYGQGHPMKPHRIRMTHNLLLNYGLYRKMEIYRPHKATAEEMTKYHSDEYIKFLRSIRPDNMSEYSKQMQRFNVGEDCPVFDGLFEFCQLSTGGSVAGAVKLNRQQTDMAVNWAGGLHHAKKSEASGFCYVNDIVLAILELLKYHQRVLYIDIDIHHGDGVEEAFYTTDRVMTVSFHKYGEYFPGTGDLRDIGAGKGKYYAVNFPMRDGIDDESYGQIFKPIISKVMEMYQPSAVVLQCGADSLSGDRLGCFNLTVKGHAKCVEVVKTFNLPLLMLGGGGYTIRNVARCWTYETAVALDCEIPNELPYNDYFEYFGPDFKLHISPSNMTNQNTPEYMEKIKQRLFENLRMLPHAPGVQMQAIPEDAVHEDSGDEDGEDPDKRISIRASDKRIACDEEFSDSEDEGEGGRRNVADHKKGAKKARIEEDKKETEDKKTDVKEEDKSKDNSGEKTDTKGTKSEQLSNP
# procedure-details: Inhibition of full-length recombinant human C-terminal GST tagged HDAC2 expressed in Sf9 insect cells using aminoluciferin peptide substrate at 100 nM preincubated for 3 hrs followed by substrate addition and measured after 30 mins by HDAC-Glo I/II chemiluminescence assay
# details: time 3.5 hrs
measurement-kind: inhibition (%)

compound-smiles | system-under-test | measurement-kind | number
Nc1ccc(-c2cccs2)cc1NC(=O)c1cn(CCN2CCOCC2)nn1 | Histone deacetylase 2 (Homo sapiens) | inhibition | 0
Nc1ccc(-c2cccs2)cc1NC(=O)CCc1cn(CS(=O)(=O)c2ccccc2)nn1 | Histone deacetylase 2 (Homo sapiens) | inhibition | 15
Nc1ccc(-c2cccnc2)cc1NC(=O)CCc1cn(-c2cccc3ccccc23)nn1 | Histone deacetylase 2 (Homo sapiens) | inhibition | 0
Nc1ccc(-c2cccs2)cc1NC(=O)c1ccc(-c2cn(CCc3cccc([N+](=O)[O-])c3)nn2)s1 | Histone deacetylase 2 (Homo sapiens) | inhibition | 23
Nc1ccc(-c2cccs2)cc1NC(=O)CCc1cn(CCc2cccc(F)c2)nn1 | Histone deacetylase 2 (Homo sapiens) | inhibition | 5

Ref: ChEMBL document CHEMBL5390237
